Measured pIC50 of individual entries
tested on: BT-474; test: cells; assay type: functional, cell-based; conditions: Homo sapiens, BT-474, 72 h
Description: Antiproliferative activity against human BT474 cells overexpressing HER2 assessed as cell growth inhibition measured after 72 hrs by MTT assay
pIC50: −log10 of the molar value.

molecule	pIC50
O=C(/C=C/CN1CCCCC1)N1CCCOc2cc3ncnc(Nc4ccc(OCc5cccc(F)c5)c(Cl)c4)c3cc21	< 5.00
C#Cc1cccc(Nc2ncnc3cc(OCCOC)c(OCCOC)cc23)c1 [ERLOTINIB]	< 5.00
O=C(/C=C/CN1CCOCC1)N1CCCOc2cc3ncnc(Nc4ccc(OCc5cccc(F)c5)c(Cl)c4)c3cc21	< 5.00

Cited source for all entries: ChEMBL document CHEMBL4627322
